UniProt:P26663 measurements of pIC50, listed per entry.
pIC50: −log10 of the molar value.
parameter: pIC50

# chemSmiles, studyTarget, parameter, result
measured = [
    ("COc1ccc2c(c1)S(=O)(=O)NC(c1c(O)c(C(C)C)nn(CCC(C)C)c1=O)=N2", "UniProt:P26663", "pIC50", "4.30 to 5.00"),
    ("CC(C)c1nn(CCC2CC2)c(=O)c(C2=Nc3ccccc3S(=O)(=O)N2)c1O", "UniProt:P26663", "pIC50", "> 5.00"),
    ("CCCCc1nn(CCC(C)C)c(=O)c(C2=Nc3ccc(O)cc3S(=O)(=O)N2)c1O", "UniProt:P26663", "pIC50", "> 5.00"),
    ("CC(C)CCn1nc(C(C)C)c(O)c(C2=Nc3ccccc3S(=O)(=O)N2)c1=O", "UniProt:P26663", "pIC50", "4.30 to 5.00"),
    ("CCCCn1nc(C(C)C)c(O)c(C2=Nc3ccc(OC)cc3S(=O)(=O)N2)c1=O", "UniProt:P26663", "pIC50", "4.30 to 5.00"),
    ("CC(C)CCn1nc(C(C)C)c(O)c(C2=Nc3ccc(O)cc3S(=O)(=O)N2)c1=O", "UniProt:P26663", "pIC50", "4.30 to 5.00"),
    ("CCCCn1nc(CCC(C)C)c(O)c(C2=Nc3ccc(O)cc3S(=O)(=O)N2)c1=O", "UniProt:P26663", "pIC50", "> 5.00"),
    ("CCCCc1nn(CCCC)c(=O)c(C2=Nc3ccc(OCC(N)=O)cc3S(=O)(=O)N2)c1O", "UniProt:P26663", "pIC50", "> 5.00"),
]

###

HCV NS5B polymerase (Hepatitis C virus genotype 1b, UniProt P26663) measurements of pIC50, listed per entry.
Sequence (P26663 2420-3010): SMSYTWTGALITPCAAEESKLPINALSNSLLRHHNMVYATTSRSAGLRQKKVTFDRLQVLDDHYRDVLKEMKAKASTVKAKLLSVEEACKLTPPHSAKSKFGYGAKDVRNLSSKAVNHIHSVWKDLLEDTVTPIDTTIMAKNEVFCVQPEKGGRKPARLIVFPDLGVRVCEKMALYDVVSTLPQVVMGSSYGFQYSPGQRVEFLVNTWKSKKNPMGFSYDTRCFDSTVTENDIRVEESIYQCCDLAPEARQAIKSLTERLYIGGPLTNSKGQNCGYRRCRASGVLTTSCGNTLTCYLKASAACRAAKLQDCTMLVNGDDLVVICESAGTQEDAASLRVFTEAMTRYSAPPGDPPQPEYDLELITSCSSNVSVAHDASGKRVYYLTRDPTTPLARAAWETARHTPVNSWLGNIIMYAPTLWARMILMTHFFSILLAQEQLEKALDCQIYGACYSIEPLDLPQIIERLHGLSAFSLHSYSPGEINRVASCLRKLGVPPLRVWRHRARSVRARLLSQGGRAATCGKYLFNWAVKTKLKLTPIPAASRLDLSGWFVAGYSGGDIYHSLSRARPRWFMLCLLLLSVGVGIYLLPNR
pIC50: −log10 of the molar value.

# compound, pIC50
records = [
    ("CCCCn1nc(CCC(C)C)c(O)c(C2=Nc3ccc(OCC(N)=O)cc3S(=O)(=O)N2)c1=O [Compound 39]", "> 5.00"),
    ("CCCc1nn(CCC(C)C)c(=O)c(C2=Nc3ccc(OC)cc3S(=O)(=O)N2)c1O [Compound 42]", "> 5.00"),
    ("CC(C)(C)CCn1nc(C(C)(C)C)c(O)c(C2=Nc3ccc(O)cc3S(=O)(=O)N2)c1=O [Compound 67]", "> 5.00"),
    ("CCCc1nn(CCC(C)C)c(=O)c(C2=NS(=O)(=O)c3cc(OCC(N)=O)ccc3N2)c1O [Compound 49]", "> 5.00"),
    ("COc1ccc2c(c1)S(=O)(=O)NC(c1c(O)c(-c3sccc3C)nn(CCC(C)C)c1=O)=N2 [Compound 61]", "> 5.00"),
    ("COc1ccc2c(c1)S(=O)(=O)NC(c1c(O)c(-c3ccc(C)s3)nn(CCC(C)C)c1=O)=N2 [Compound 9]", "4.30 to 5.00"),
    ("CCCCn1nc(CCC(C)C)c(O)c(C2=Nc3ccc(OC)cc3S(=O)(=O)N2)c1=O [Compound 34]", "> 5.00"),
    ("CCCCc1nn(CCCC)c(=O)c(C2=Nc3ccc(OC)cc3S(=O)(=O)N2)c1O [Compound 40]", "4.30 to 5.00"),
    ("COc1ccc2c(c1)S(=O)(=O)NC(c1c(O)c(-c3cccs3)nn(CCC(C)(C)C)c1=O)=N2 [Compound 56]", "> 5.00"),
    ("O=c1c(C2=Nc3ccc(O)cc3S(=O)(=O)N2)c(O)c(-c2cccs2)nn1Cc1c(F)cccc1Cl [Compound 19]", "4.30 to 5.00"),
    ("O=c1c(C2=Nc3ccc(O)cc3S(=O)(=O)N2)c(O)c(-c2cccs2)nn1Cc1ccccc1 [Compound 6]", "> 5.00"),
    ("COc1ccc2c(c1)S(=O)(=O)NC(c1c(O)c(C(C)(C)C)nn(CCC(C)(C)C)c1=O)=N2 [Compound 66]", "4.30 to 5.00"),
    ("CC(C)c1nn(Cc2ccccc2)c(=O)c(C2=Nc3ccccc3S(=O)(=O)N2)c1O [Compound 41]", "4.30 to 5.00"),
    ("COc1ccc2c(c1)S(=O)(=O)NC(c1c(O)c(-c3cccs3)nn(Cc3ccccc3)c1=O)=N2 [Compound 5]", "4.30 to 5.00"),
    ("CCCCn1nc(C(C)C)c(O)c(C2=Nc3ccc(OCC(N)=O)cc3S(=O)(=O)N2)c1=O [Compound 12]", "> 5.00"),
    ("CCCCc1nn(CCC(C)C)c(=O)c(C2=Nc3ccc(OC)cc3S(=O)(=O)N2)c1O [Compound 35]", "> 5.00"),
    ("Cc1ccsc1-c1nn(CCC(C)C)c(=O)c(C2=NS(=O)(=O)c3cc(OCC(N)=O)ccc3N2)c1O [Compound 65]", "> 5.00"),
    ("CC(C)c1nn(CCC(C)(C)C)c(=O)c(C2=Nc3ccccc3S(=O)(=O)N2)c1O [Compound 53]", "> 5.00"),
    ("CCCCn1nc(C(C)C)c(O)c(C2=Nc3ccc(O)cc3S(=O)(=O)N2)c1=O [Compound 11]", "> 5.00"),
    ("COc1ccc2c(c1)S(=O)(=O)NC(c1c(O)c(CCC#N)nn(CCC(C)(C)C)c1=O)=N2 [Compound 58]", "4.30 to 5.00"),
    ("CC(C)CCn1nc(-c2cccs2)c(O)c(C2=Nc3ccc(OCC(=O)N4CCC(N)C4)cc3S(=O)(=O)N2)c1=O (stereo not shown) [Compound 21]", "> 5.00"),
    ("CCCCn1nc(-c2ccccc2)c(O)c(C2=Nc3ccc(OC)cc3S(=O)(=O)N2)c1=O [Compound 15]", "4.30 to 5.00"),
    ("Cc1ccc(-c2nn(CCC(C)(C)C)c(=O)c(C3=NS(=O)(=O)c4cc(OCC(N)=O)ccc4N3)c2O)s1 [Compound 64]", "> 5.00"),
    ("O=c1c(C2=Nc3ccc(O)cc3S(=O)(=O)N2)c(O)c(-c2cccs2)nn1CCC1CC1 [Compound 7]", "> 5.00"),
    ("CC(C)CCn1nc(-c2cccs2)c(O)c(C2=NS(=O)(=O)c3sc(Cl)cc3N2)c1=O [Compound 50]", "4.30 to 5.00"),
    ("COc1ccc2c(c1)S(=O)(=O)NC(c1c(O)c(-c3cccs3)nn(CCC3CC3)c1=O)=N2 [Compound 3]", "> 5.00"),
    ("CC(C)CCn1nc(-c2cccs2)c(O)c(C2=Nc3ccncc3S(=O)(=O)N2)c1=O [Compound 30]", "> 5.00"),
    ("CC(C)CCn1nc(C(C)C)c(O)c(C2=Nc3ccc(OCC(N)=O)cc3S(=O)(=O)N2)c1=O [Compound 33]", "> 5.00"),
    ("CCCCc1nn(CCCC)c(=O)c(C2=Nc3ccc(O)cc3S(=O)(=O)N2)c1O [Compound 45]", "> 5.00"),
    ("CC(C)c1nn(CC2CCC2)c(=O)c(C2=Nc3ccccc3S(=O)(=O)N2)c1O [Compound 63]", "4.30 to 5.00"),
    ("Cc1ccc(-c2nn(Cc3ccccc3)c(=O)c(C3=Nc4ccccc4S(=O)(=O)N3)c2O)s1 [Compound 59]", "> 5.00"),
]

Data origin: patent US20060189602A1
